Hey, just so you know, these numbers are from ChEMBL document CHEMBL1201862.

biological target: Fatty acid synthase (Homo sapiens, UniProt P49327); assay: inhibition of human FAS-TE enzyme activity – biochemical, kinetic fluorescence intensity, dose response (AID 624326); assay type: functional;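 note: rate of fluorescence rise from hydrolysis of a fluorogenic O-methyl fluorescein ester substrate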
Sequence (P49327 whole entry): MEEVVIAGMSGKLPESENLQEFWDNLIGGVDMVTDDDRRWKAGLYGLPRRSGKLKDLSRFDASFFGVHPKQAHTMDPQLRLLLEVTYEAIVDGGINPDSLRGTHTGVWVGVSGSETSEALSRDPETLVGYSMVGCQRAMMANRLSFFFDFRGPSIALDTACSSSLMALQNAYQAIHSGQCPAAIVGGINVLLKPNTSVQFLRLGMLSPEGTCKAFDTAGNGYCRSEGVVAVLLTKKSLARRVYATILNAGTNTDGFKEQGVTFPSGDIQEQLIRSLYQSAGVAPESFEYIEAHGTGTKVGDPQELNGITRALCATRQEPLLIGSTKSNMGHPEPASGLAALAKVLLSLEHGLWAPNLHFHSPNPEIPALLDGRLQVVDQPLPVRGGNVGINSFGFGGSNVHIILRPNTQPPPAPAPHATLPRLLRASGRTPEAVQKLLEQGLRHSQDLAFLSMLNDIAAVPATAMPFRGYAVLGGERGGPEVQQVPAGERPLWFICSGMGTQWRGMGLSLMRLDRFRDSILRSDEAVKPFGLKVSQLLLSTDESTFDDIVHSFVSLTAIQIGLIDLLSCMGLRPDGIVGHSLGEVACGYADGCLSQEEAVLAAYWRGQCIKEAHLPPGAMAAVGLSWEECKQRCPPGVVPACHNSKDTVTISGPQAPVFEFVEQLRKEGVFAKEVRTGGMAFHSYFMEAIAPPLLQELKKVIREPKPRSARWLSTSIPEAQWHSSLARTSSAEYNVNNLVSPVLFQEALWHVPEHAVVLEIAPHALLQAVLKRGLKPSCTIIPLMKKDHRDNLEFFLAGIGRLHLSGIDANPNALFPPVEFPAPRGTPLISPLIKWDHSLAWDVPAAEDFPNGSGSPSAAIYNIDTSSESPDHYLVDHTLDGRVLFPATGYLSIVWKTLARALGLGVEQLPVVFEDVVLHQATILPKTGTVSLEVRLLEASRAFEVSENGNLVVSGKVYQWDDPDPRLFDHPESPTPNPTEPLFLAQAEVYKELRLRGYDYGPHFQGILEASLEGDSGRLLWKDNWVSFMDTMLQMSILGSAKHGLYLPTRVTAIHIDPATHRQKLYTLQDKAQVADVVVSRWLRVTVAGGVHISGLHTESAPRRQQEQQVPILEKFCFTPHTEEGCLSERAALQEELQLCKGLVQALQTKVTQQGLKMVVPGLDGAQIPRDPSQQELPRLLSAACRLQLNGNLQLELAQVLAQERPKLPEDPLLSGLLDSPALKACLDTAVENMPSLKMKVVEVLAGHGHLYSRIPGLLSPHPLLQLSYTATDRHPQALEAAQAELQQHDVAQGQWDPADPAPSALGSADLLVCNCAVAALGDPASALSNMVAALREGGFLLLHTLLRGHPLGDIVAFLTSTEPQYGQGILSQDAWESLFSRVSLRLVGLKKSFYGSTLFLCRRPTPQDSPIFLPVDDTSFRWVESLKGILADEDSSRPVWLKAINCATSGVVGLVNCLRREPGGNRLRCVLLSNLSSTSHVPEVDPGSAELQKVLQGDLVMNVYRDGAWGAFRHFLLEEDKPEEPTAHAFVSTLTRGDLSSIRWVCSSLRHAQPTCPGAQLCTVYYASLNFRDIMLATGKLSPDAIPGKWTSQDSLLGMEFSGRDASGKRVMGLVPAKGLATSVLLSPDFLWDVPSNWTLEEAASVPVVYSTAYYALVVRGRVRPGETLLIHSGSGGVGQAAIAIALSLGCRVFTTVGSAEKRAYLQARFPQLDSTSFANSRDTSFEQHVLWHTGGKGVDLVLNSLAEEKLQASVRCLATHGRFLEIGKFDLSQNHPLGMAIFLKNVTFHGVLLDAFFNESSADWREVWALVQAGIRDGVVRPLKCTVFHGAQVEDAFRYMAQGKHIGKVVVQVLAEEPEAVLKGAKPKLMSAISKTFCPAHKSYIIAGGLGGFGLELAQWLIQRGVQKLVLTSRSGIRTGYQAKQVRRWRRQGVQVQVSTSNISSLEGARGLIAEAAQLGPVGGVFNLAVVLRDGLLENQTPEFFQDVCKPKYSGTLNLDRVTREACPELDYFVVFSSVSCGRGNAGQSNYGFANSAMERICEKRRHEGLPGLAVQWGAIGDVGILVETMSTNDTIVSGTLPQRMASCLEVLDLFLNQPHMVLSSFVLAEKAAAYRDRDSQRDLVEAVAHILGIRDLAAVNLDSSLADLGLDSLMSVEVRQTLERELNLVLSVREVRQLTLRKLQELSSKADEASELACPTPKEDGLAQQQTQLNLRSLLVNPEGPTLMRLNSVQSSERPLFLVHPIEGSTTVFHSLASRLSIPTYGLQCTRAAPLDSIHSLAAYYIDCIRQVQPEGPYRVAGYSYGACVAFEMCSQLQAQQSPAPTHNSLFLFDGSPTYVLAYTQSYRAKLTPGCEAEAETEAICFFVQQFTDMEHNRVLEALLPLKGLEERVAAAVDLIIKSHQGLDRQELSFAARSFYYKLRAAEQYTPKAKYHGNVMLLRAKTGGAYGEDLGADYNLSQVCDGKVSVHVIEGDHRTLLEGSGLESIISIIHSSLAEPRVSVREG
Active and inactive are the calls of the source.
Parameter measured: IC50

Batch lookup, IC50 per entry.
1. CCOC(=O)CC(NC(=O)c1cc2ccccc2oc1=O)c1cccc([N+](=O)[O-])c1 (stereo not given)
2. COC(=O)c1ccc(CSc2nc(C(F)F)cc(C)c2C#N)o1
3. CC1=C(C(=O)OCC(Br)(Br)Br)C(c2cccc([N+](=O)[O-])c2)NC(=O)N1CCCC(=O)O (stereo not given)

result:
1: 15.5 µM (active); 2: 18.6 µM (active); 3: 5.05 µM (active)

Batch lookup, IC50 per entry.
1. COc1ccc([N+](=O)[O-])cc1NC(=O)CCC(=O)c1cccs1
2. O=[N+]([O-])c1ccc(S(=O)(=O)NN=Cc2ccc3c(c2)OCO3)cc1

result:
1: 9.62 µM (active); 2: 5.8 µM (active)

====

What follows is a record of IC50 for UniProt P03372.
Sequence (P03372 whole entry): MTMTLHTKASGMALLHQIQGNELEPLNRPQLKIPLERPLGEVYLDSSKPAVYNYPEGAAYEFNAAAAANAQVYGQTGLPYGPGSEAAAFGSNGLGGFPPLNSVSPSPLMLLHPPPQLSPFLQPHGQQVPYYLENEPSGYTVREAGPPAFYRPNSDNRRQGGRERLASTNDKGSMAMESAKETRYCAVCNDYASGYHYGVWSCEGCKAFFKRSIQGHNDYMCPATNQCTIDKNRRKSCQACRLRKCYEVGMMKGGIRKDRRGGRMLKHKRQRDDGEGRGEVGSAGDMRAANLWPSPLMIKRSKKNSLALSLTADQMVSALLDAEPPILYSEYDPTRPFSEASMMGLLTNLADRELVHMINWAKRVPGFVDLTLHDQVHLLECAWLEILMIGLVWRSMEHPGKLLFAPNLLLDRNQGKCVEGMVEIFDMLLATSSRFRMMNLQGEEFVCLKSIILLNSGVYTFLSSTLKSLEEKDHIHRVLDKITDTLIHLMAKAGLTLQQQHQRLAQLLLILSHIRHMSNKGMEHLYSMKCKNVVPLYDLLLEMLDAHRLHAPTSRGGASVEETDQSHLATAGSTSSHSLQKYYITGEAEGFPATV
The source made the active and inactive calls.

Record excerpt, results attached:
query: # value lookup — system UniProt P03372, readout IC50, item O=C(Cc1cn2ccsc2n1)OCc1nc2ccccc2s1
result: 6.98 µM (active)

query: # value lookup — system UniProt P03372, readout IC50, item NC(=O)C1(N2CCCCC2)CCN(c2nc(-c3ccc(Br)cc3)cs2)CC1
result: 37.8 µM (not active)

query: # value lookup — system UniProt P03372, readout IC50, item Cc1c(Br)cc(C(=O)NCc2ccco2)c(C)c1C
result: > 50 µM (not active)

Note: attention shifts to another entry.
query: # value lookup — system UniProt P03372, readout IC50, item CC(=O)Nc1ccc2nc(C)cc(O)c2c1
result: 21 µM (active)

====

What follows is a record of AC50 for Cytochrome P450 2C9 (Homo sapiens, UniProt P11712).

Record excerpt, results attached:
query: # value lookup — system Cytochrome P450 2C9 (Homo sapiens, UniProt P11712), readout AC50, item Cc1nc(SC2CC(=O)N(c3ccc([N+](=O)[O-])cc3)C2=O)nc2c1CCCC2 (stereo not given)
result: 11.2 µM (inconclusive)

query: # value lookup — system Cytochrome P450 2C9 (Homo sapiens, UniProt P11712), readout AC50, item O=C(c1ccco1)N1CCC2(CC1)CN(C(c1ccccc1)c1ccccc1)C2
result: 25.1 µM (inconclusive)

query: # value lookup — system Cytochrome P450 2C9 (Homo sapiens, UniProt P11712), readout AC50, item O=C(NC1CCCCC1)C(Cc1ccccc1)N1C(=O)C2C3CCC(C3)C2C1=O (stereo not given)
result: 0.1 µM (inconclusive)

query: # value lookup — system Cytochrome P450 2C9 (Homo sapiens, UniProt P11712), readout AC50, item CCCNC(=O)OC[C@@H]1O[C@H](CCO/N=C2\c3cc(OC)ccc3O[C@H](c3cccc(OC)c3)[C@H]2O)C=C[C@@H]1Oc1ccc(OC)cc1
result: 6.31 µM (inconclusive)

Note: attention shifts to another entry.
query: # value lookup — system Cytochrome P450 2C9 (Homo sapiens, UniProt P11712), readout AC50, item N#CN(CC(N)=O)c1nc(N2CCCCC2)nc(N2CCCCC2)n1
result: 10 µM (inconclusive)

====

target: Replicative DNA helicase DnaB (Mycobacterium tuberculosis); experiment: DnaB intein splicing inhibitors, dose response, biochemical, cell-free fluorescence (AID 449749); type: functional
Activity calls are given as the source filed them.
The categories you may choose from are active, inactive

Solved cases (2 shown):
query: For CC1C(=O)C(C)C(c2cc(Cl)ccc2O)NC1c1cc(Cl)ccc1O (stereo not drawn) , which call appears in the assay record?
result: active

query: For CCOC(=O)c1c(CCl)nc2ccccc2c1-c1ccccc1 , which call appears in the assay record?
result: active

Please examine the following record next.
query: For COc1cc(C(C(=O)NC2CCCCC2)N(CCN2CCOCC2)C(=O)C2COc3ccccc3O2)cc(OC)c1OC (stereo not drawn) , which call appears in the assay record?
result: inactive

====

test: Luminescence Cell-Based Dose Retest to Confirm Inhibitors of Cancer Stem Cells. [Related pubchem assays (depositor defined):AID2717, AID2721]; assay type: functional; conditions: Homo sapiens
Calls of active or inactive are those of the source.
Parameter measured: AC50

Record excerpt, results attached:
query: Please give the measured AC50 for this molecule: C=C(C)Cn1c(SCC(=O)N/N=C/c2c(O)ccc3ccccc23)nc2ccccc2c1=O
result: 3050 nM (active)

query: Please give the measured AC50 for this molecule: CCCCc1ccc(NC(=O)Nc2cc(C)nn2C)cc1
result: 3310 nM (active)

query: Please give the measured AC50 for this molecule: COC(=O)c1c(NC(=O)/C=C/c2ccc3c(c2)OCO3)sc(C)c1C
result: 4170 nM (active)

Batch lookup, AC50 per entry.
1. CN(C)/C=C(\C=N\OCc1ccc(Cl)cc1Cl)C(=O)Nc1ccc(Cl)c(Cl)c1
2. C/C(NNc1ccccc1)=C1/C(=O)NC(=O)N(Cc2ccccc2)C1=O
3. O=[N+]([O-])c1ccc(N/N=C/c2c[nH]c3ccccc23)c(S(=O)(=O)Nc2ccc(Cl)cc2)c1

result:
1. 1500 nM (active)
2. 1030 nM (active)
3. 1150 nM (active)

====

molecular target: High affinity choline transporter 1 (Homo sapiens, UniProt Q9GZV3); experiment: human choline transporter blockers, potency – cell-based, 5-point CRC, membrane potential dye, dose response (AID 504840); assay type: functional
Sequence (Q9GZV3 whole entry): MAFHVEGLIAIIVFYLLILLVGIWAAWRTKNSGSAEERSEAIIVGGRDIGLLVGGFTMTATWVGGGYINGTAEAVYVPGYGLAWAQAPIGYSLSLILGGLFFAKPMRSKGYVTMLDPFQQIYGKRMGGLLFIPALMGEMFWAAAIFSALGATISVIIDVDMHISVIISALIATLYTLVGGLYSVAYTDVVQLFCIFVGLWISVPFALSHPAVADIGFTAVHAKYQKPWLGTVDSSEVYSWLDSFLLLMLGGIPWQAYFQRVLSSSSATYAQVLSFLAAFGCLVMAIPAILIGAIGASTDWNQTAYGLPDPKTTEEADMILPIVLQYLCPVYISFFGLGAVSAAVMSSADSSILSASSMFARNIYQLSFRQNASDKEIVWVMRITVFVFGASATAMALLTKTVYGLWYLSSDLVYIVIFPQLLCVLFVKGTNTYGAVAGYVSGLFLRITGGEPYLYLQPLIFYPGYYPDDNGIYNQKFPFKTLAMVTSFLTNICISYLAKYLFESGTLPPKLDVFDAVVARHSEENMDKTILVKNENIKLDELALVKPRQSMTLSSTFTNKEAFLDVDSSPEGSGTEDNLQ
Calls of active or inactive are those of the source.
I'd be grateful if you could share measured IC50 for these entries.

Record excerpt, results attached:
query: Please give the measured IC50 for this compound: O=C(c1ccc(O)cc1)c1ccc(Cl)cc1
result: 11 µM (active)

query: Please give the measured IC50 for this compound: CC1(C(=O)N2CCC(CC3CC(c4ccc(Cl)cc4)=NO3)(C(=O)NCC3CCCCC3)CC2)CC1 (stereo not given)
result: 6.92 µM (active)

query: Please give the measured IC50 for this compound: Cc1ccc(Cn2c(=N)n(CC(O)COc3ccccc3)c3ccccc32)cc1 (stereo not given)
result: 5.55 µM (active)

query: Please give the measured IC50 for this compound: CCCn1nc2cc(C(=O)NCc3ccc(C)cc3)ccc2c1OCC
result: 8.18 µM (active)

Note: attention shifts to another entry.
query: Please give the measured IC50 for this compound: CC1CCN(S(=O)(=O)c2nnc(NC(=O)c3cccc([N+](=O)[O-])c3)s2)CC1
result: 11.5 µM (active)

====

biological target: UniProt:P00735; test: thrombin protease inhibitors – biochemical, fluorescence polarization, uHTS hits, dose response (AID 602369); format: functional
Calls of active or inactive are those of the source.
I'd be grateful if you could share measured IC50 for these entries.

Record excerpt, results attached:
query: Please give the measured IC50 for this molecule: CC1=Nc2ccccc2/C1=C\c1nc(-c2ccccc2)oc1O
result: 7.22 µM (active)

query: Please give the measured IC50 for this molecule: C=CCn1c(SCC(=O)Nc2ccc(-c3nc4ccc(C)cc4s3)cc2)nnc1-c1ccccc1
result: 51.4 µM (active)

query: Please give the measured IC50 for this molecule: Cc1cc(/C=C(/C#N)c2nc3ccccc3[nH]2)c(C)n1-c1ccccc1C(=O)O
result: 25.5 µM (active)

query: Please give the measured IC50 for this molecule: O=C1/C(=C/c2ccc(O)c(O)c2)Oc2cc(O)ccc21 [SULFURETIN]
result: 21.7 µM (active)

Note: attention shifts to another entry.
query: Please give the measured IC50 for this molecule: O=[N+]([O-])c1ccc(N2CCCCC2)s1
result: 68 µM (active)

====

Target: Orexin/Hypocretin receptor type 1 (Homo sapiens);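 note: antagonism measured against Orexin-A challenge at about its EC80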
Sequence (O43613 whole entry): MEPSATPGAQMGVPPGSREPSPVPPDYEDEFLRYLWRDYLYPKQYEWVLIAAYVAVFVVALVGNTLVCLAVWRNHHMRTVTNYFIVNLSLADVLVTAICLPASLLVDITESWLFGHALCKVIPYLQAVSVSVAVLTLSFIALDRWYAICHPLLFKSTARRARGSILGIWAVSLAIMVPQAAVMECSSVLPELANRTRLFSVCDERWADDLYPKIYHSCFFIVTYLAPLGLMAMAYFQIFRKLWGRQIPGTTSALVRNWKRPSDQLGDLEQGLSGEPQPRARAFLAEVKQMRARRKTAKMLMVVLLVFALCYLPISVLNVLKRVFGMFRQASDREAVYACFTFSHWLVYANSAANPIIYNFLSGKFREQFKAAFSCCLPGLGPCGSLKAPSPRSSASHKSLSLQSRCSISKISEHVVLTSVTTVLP
Assay: Homogeneous Time Resolved Fluorescence (HTRF)-based cell-based high throughput dose response assay for antagonists of the orexin 1 receptor (OX1R; HCRTR1). [Related pubchem assays (depositor defined):AID434989, AID435008, AID463079, AID485270, AID492963, AID492964, AID492965, AID493232, AID504717, AID504718]
Format: functional
Active and inactive are the calls of the source.
The categories you may choose from are y = active, n = inactive

Solved cases (4 shown):
query: For O=C1N[C@@H](c2ccccc2)COC(=O)[C@@H](Cc2ccc(F)cc2)C/C=C\C[C@@H]1CC(=O)N(CCO)Cc1ccccc1 , which call appears in the assay record?
result: n

query: For COc1ccc(CN2CC[C@H]3C=CC[C@@H](C(=O)Nc4ccc(Cl)c(C(F)(F)F)c4)[C@H]3C2=O)cc1OC , which call appears in the assay record?
result: y

query: For Cc1ccnc2ccc(-c3nc4ccccc4o3)cc12 , which call appears in the assay record?
result: y

query: For O=C(N=Nc1c(O)[nH]c2ccccc12)c1cccc(S(=O)(=O)Nc2ccccc2Cl)c1 , which call appears in the assay record?
result: y

---
query: For CC(C)(O)c1cc2ccc(C#Cc3ccsc3)cc2c(=O)o1 , which call appears in the assay record?
result: y
